# key: entry, value: pKd
Test System: T1, human CD154, soluble antigen (human, UniProt P29965 116-261, limits assumed)
T1 construct: KinExA uses 'soluble antigen'; also called CD40 ligand; CD40L
T1 sequence (looked up): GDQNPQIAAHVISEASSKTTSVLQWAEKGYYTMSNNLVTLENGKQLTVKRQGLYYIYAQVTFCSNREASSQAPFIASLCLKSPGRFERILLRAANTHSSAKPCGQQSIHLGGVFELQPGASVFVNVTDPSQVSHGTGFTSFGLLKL
Experimental Protocol: KinExA solution-phase equilibrium, Fab with soluble antigen
Scale: negative log10 of molar concentration, which is what pKd denotes.

| Binder | Experimental Value |
| --- | --- |
| 5c8 Fab Mutant #18 (heavy T30H; light S26D/Q27E/T33W) (Fab, V domains shown) VH: QVQLVQSGAEVVKPGASVKLSCKASGYIFHSYYMYWVKQAPGQGLEWIGEINPSNGDTNFNEKFKSKATLTVDKSASTAYMELSSLRSEDTAVYYCTRSDGRNDMDSWGQGTLVTVSS VL: DIVLTQSPATLSVSPGERATISCRADERVSSSWYSYMHWYQQKPGQPPKLLIKYASNLESGVPARFSGSGSGTDFTLTISSVEPEDFATYYCQHSWEIPPTFGGGTKLEIK | 10.27 |
| 5c8 Fab Mutant #22 (heavy T30H/Y33W/S54N; light S26D/Q27E/T33W) (Fab, V domains shown) VH: QVQLVQSGAEVVKPGASVKLSCKASGYIFHSYWMYWVKQAPGQGLEWIGEINPNNGDTNFNEKFKSKATLTVDKSASTAYMELSSLRSEDTAVYYCTRSDGRNDMDSWGQGTLVTVSS VL: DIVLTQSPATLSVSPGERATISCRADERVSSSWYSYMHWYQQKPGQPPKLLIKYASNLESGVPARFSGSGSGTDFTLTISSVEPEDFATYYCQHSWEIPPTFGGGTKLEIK | 10.26 |
| 5c8 Fab Mutant #28 (heavy Y33W/S54N; light S26D/Q27E) (Fab, V domains shown) VH: QVQLVQSGAEVVKPGASVKLSCKASGYIFTSYWMYWVKQAPGQGLEWIGEINPNNGDTNFNEKFKSKATLTVDKSASTAYMELSSLRSEDTAVYYCTRSDGRNDMDSWGQGTLVTVSS VL: DIVLTQSPATLSVSPGERATISCRADERVSSSTYSYMHWYQQKPGQPPKLLIKYASNLESGVPARFSGSGSGTDFTLTISSVEPEDFATYYCQHSWEIPPTFGGGTKLEIK | 10.11 |
| 5c8 Fab Mutant #27 (heavy Y33W/S54N; light S26D/Q27E/T33W) (Fab, V domains shown) VH: QVQLVQSGAEVVKPGASVKLSCKASGYIFTSYWMYWVKQAPGQGLEWIGEINPNNGDTNFNEKFKSKATLTVDKSASTAYMELSSLRSEDTAVYYCTRSDGRNDMDSWGQGTLVTVSS VL: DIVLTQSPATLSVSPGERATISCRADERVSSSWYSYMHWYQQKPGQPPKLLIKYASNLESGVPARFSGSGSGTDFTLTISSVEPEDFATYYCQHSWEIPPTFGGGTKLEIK | 10.28 |

Proceeding to the next binder to report its pKd.
pKd recorded for this binder, 5c8 Fab Mutant #2 (heavy chain Y33W) (Fab, V domains shown) VH: QVQLVQSGAEVVKPGASVKLSCKASGYIFTSYWMYWVKQAPGQGLEWIGEINPSNGDTNFNEKFKSKATLTVDKSASTAYMELSSLRSEDTAVYYCTRSDGRNDMDSWGQGTLVTVSS VL: DIVLTQSPATLSVSPGERATISCRASQRVSSSTYSYMHWYQQKPGQPPKLLIKYASNLESGVPARFSGSGSGTDFTLTISSVEPEDFATYYCQHSWEIPPTFGGGTKLEIK , is 9.77
